target: APOL1 (Homo sapiens, UniProt O14791); experiment: Multi-Tox Assay (MultiTox-Fluor Multiplex Cytotoxicity Assay in tet-inducible APOL1 T-REx-HEK293 cells; Table 46 does not say which APOL1 variant G0/G1/G2); settings: IP50 = IC50 for cell proliferation, APOL1 variant not given
Sequence (O14791 whole entry S342G/I384M, form open): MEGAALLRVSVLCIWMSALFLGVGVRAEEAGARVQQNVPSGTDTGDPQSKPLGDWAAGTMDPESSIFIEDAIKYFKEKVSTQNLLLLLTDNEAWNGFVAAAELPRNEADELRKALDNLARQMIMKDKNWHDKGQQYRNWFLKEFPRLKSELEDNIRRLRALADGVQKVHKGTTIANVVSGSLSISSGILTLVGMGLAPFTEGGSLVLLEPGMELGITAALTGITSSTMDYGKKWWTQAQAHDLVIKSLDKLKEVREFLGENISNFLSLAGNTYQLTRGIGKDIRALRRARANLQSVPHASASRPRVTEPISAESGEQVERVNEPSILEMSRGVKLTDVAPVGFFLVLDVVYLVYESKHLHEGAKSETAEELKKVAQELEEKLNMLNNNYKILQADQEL
Parameter: IC50

- Compound: "C[C@H]1C[C@@]2(C[C@@H](c3ccnc(O)c3)N1)OCCc1cc(Cl)sc12 (racemic)"
  IC50: "< 50 nM"

query: Enter reported IC50 observed with APOL1 (Homo sapiens, UniProt O14791) for COCC(O)Cn1cc([C@@H]2C[C@]3(C[C@H](C)N2)OCC(F)(F)c2cc(Cl)sc23)nn1 (stereo partly drawn)
result: 50 to 500 nM

query: Record: CC1CC2(CC(c3cn[nH]c3)N1)OCCc1cc(Cl)sc12 (stereo not drawn)
result: < 50 nM

###

Recorded measurements of pIC50, one per entry
molecular target: UniProt O14791; assay: Multi-Tox Assay (MultiTox-Fluor Multiplex Cytotoxicity Assay in tet-inducible APOL1 T-REx-HEK293 cells; Table 46 does not say which APOL1 variant G0/G1/G2); conditions: IP50 = IC50 for cell proliferation, APOL1 variant not given
pIC50: −log10 of the molar value.

The cases that follow already have their pIC50 on record.
- Compound: "C[C@H]1C[C@@]2(C[C@@H](c3ccnc(N(C)C)n3)N1)OCCc1cc(Cl)sc12 (racemic)"
  pIC50: "6.30 to 7.30"
- Compound: "C[C@H]1C[C@@]2(C[C@@H](c3cnn(CCO)c3)N1)OCCc1cc(Cl)sc12 (racemic)"
  pIC50: "> 7.30"

query: Entry C[C@H]1C[C@@]2(C[C@@H](c3ccccc3)N1)OCCc1cc(Cl)sc12 (racemic) has what pIC50?
result: > 7.30

query: Record: C[C@H]1C[C@@]2(C[C@@H](c3ccc(C(F)(F)F)nc3)N1)OCCc1cc(Cl)sc12 (racemic)
result: > 7.30

query: Record: "C[C@H]1C[C@@]2(C[C@@H](c3cn(C)nn3)N1)OC[C@@H](O)c1cc(C(F)(F)F)sc12"
result: > 7.30

query: Record: C[C@@H]1CC2(C[C@H](C)N1)OCCc1cc(Br)sc12 (single isomer, unassigned)
result: 6.30 to 7.30

query: Record: C[C@@H]1CC2(C[C@H](C)N1)OCCc1cc(Cl)sc12 (single isomer, unassigned)
result: 6.30 to 7.30

###

target: APOL1 G1 (Homo sapiens, UniProt O14791, I384M/S342G); test: Trypanosoma brucei brucei Lysis Assay Using APOL1 Recombinant Protein (AlamarBlue viability readout); format: cell-based; details: Trypanosome Assay; read-out: Trypanosome Assay Max Activity (%)
Sequence (O14791 28-398 S342G/I384M): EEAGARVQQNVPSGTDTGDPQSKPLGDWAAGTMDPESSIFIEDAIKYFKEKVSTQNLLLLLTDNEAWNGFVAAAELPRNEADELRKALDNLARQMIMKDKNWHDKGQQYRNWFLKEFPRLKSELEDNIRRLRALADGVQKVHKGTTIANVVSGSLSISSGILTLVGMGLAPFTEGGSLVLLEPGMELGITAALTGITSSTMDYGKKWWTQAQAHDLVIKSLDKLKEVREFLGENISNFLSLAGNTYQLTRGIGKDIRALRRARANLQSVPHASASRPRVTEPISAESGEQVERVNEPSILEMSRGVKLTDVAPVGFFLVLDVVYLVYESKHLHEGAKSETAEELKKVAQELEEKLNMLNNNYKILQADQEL
Parameter: Emax

The cases that follow already have their Emax on record.
- Compound: "C[C@H]1C[C@@]2(C[C@@H](c3cnc(-c4cnn(C)c4)nc3)N1)OCCc1cc(Cl)sc12 (stereo in doubt) [Compound 61]"
  Emax: "105%"
- Compound: "COc1ccnc([C@@H]2C[C@]3(C[C@H](C)N2)OCCc2cc(Cl)sc23)n1 (racemic) [Compound 145]"
  Emax: "88%"
- Compound: "C[C@H]1C[C@@]2(C[C@@H](c3cnn(C4CCOCC4)c3)N1)OCCc1cc(Cl)sc12 (racemic) [Compound 100]"
  Emax: "99%"
- Compound: "C[C@H]1C[C@@]2(C[C@@H](c3cnn4ccccc34)N1)OCCc1cc(Cl)sc12 (racemic) [Compound 117]"
  Emax: "101%"
- Compound: "CCOc1ccc([C@@H]2C[C@]3(C[C@H](C)N2)OCCc2cc(Cl)sc23)cc1O (racemic) [Compound 107]"
  Emax: "92.5%"

query: Entry C[C@H]1C[C@@]2(C[C@@H](c3cn(C)nn3)N1)OCCc1sc(C(F)(F)F)cc12 [Compound 8] has what Emax?
result: 106%

query: Record: Cc1nc([C@@H]2C[C@]3(C[C@H](C)N2)OCCc2cc(Cl)sc23)c[nH]1 (racemic) [Compound 156]
result: 85%

query: Record: Cc1cc([C@@H]2C[C@]3(C[C@H](C)N2)OCCc2cc(Cl)sc23)ccn1 (racemic) [Compound 21]
result: 108%

query: Record: C[C@H]1C[C@@]2(C[C@@H](c3cnc(C(N)=O)cn3)N1)OCCc1cc(Cl)sc12 (racemic) [Compound 63]
result: 104%

query: Record: CC1CC2(CC(C3CC3)N1)OCCc1cc(Cl)sc12 (mixture of isomers) [Compound 217]
result: 110%
